Molecular target: T1, RSV F glycoprotein (NUF4) (respiratory syncytial virus)
T1 chain 1: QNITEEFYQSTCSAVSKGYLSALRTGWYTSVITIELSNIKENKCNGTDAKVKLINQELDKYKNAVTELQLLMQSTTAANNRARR
T1 chain 2: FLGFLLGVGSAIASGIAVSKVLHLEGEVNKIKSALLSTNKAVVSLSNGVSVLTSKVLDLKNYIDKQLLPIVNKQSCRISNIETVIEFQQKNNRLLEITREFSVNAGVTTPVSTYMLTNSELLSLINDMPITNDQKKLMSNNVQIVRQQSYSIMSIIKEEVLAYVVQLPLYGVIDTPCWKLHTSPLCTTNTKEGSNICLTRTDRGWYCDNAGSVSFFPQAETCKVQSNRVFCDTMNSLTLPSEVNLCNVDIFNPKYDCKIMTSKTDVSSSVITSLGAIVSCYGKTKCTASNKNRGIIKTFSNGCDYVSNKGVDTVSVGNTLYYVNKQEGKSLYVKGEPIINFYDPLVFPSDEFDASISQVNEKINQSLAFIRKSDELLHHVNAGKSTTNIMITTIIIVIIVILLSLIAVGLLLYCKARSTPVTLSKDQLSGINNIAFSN
Assay: SPR (BIAcore), mAb vs NUF4 (1:1)
recorded.metric: kon (M⁻¹ s⁻¹)
Response body: numeric value in M⁻¹ s⁻¹, unit text excluded.

1. A1e9 IgG (antibody, V domains shown, also called Ale9) VH: QVTLRESGPALVKPTQTLTLTCTFSGFSLSTAGMSVGWIRQPPGKALEWLADIWWDGKKHYNPSLKDRLTISKDTSKNQVVLKVTNMDPADTATYYCARDMIFNWYFDVWGQGTTVTVSS VL: DIQMTQSPSTLSASVGDRVTITCSLSSRVGYMHWYQQKPGKAPKLLIYDTFKLSSGVPSRFSGSGSGTEFTLTISSLQPDDFATYYCFQGSGYPFTFGGGTKVEIKR : 843000

kon for A4B4 IgG (antibody, V domains shown) VH: QVTLRESGPALVKPTQTLTLTCTFSGFSLSTAGMSVGWIRQPPGKALEWLADIWWDDKKHYNPSLKDRLTISKDTSKNQVVLKVTNMDPADTATYYCARDMIFNFYFDVWGQGTTVTVSS VL: DIQMTQSPSTLSASVGDRVTITCSASSRVGYMHWYQQKPGKAPKLLIYDTFFLDSGVPSRFSGSGSGTEFTLTISSLQPDDFATYYCFQGSGYPFTFGGGTKVEIKR is 496000
